System: IL-2-FL/Gaussia Luciferase
Assay: Dox Induced IL2-FL-Gluc Assay
Assay type: cell-based
Settings: 24 hr doxycycline induction, 293FRT/TO cells, Gaussia luciferase signal; read-out: 24 hr Dox Inducible IL2FLGIuc 293FRT/TO: Mean IC50
Method: Transfected cells were selected for resistance to the selectable markers Hygromycin and Blasticidin to create a stable cell line that contained the IL-2-FL/Gaussia Luciferase cDNA insert whose expression was regulated under the T-RExTM system. The day before assay, cells were trypsinized and plated in 384-well tissue culture plates. The next day, compound dilutions in DMSO/media containing doxycycline were added to the wells and incubated at 37° C., 5% CO2. […]
Friendly reminder: IC50 below 2000 nM is Satisfied, at or above is Not satisfied.

O=C(Nc1nc(/C=C/c2ccoc2)cs1)c1cccn1CCCc1ccncc1 = Not satisfied
CC(C)OC(C)(C)c1csc(NC(=O)c2cccn2CCCCc2ccncc2)n1 = Satisfied
O=C(Nc1nc(C2Cc3ccccc3O2)cs1)c1cccn1Cc1ccncc1 (centres unmarked) = Satisfied
C[C@H](OC(C)(C)c1csc(NC(=O)c2cccn2CCCc2ccncc2)n1)c1ccccc1 = Satisfied

query: Is 2000 nM strictly greater than the molecule's reported IC50? molecule: "O=C(Nc1nc(/C=C/C2=CCCCC2)cs1)c1cccn1Cc1ccncc1"
result: Satisfied

query: Is the reported IC50 for "O=C(Nc1nc(/C=C/c2ccc(Cl)cc2)cs1)c1cccn1Cc1ccncc1" strictly below 2000 nM?
result: Satisfied

query: Problem: For the molecule CC(OC(C)(C)c1csc(NC(=O)c2cccn2Cc2ccncc2)n1)c1ccc(Cl)cc1 (centres unmarked) , is IC50 under 2000 nM?
result: Satisfied

query: Is the reported IC50 for O=C(Nc1nc(C2CCc3ccccc3O2)cs1)c1cccn1CCCc1ccncc1 (centres unmarked) strictly below 2000 nM?
result: Not satisfied
